Entries annotated with measured Relative cAMP EC50
# TARGET_ENTITY: human glucagon receptor (human) (UniProt P47871)
# Sequence (P47871 26-477): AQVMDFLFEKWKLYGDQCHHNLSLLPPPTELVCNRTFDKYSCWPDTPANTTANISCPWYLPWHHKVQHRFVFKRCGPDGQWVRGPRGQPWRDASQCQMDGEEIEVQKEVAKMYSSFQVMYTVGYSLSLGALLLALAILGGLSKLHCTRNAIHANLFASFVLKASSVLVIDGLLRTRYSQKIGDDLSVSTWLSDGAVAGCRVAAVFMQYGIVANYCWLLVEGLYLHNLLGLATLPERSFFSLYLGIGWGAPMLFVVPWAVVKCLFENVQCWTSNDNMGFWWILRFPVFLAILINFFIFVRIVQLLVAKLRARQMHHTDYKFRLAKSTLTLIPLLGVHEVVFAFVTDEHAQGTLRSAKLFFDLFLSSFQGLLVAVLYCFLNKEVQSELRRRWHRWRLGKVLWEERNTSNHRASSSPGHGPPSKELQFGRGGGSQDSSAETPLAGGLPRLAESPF
# ASSAY_METHOD_TEXT: cell-based or functional assay
Starred links: 1 amine or outer side, 2 acyl side, 3 side chain; linkers in the order of their positions; H or OH if unused. Non-standard residues stand in square brackets, D forms with d. Groups on a side chain read outwards from the residue. No end group written: not given here. *: point of attachment. C20 diacid = O=C(O)CCCCCCCCCCCCCCCCCCC(=O)*; αMePhe(2-F) = C[C@](N)(Cc1ccccc1F)C(=O)O; γGlu = O=C(O)[C@H](CCC(=O)[*:2])N[*:1]; AEEA = NCCOCCOCC(=O)O; Aib = CC(C)(N)C(=O)O
PROPERTY: Relative cAMP EC50

INSERT INTO results (binder, property, result) VALUES
  ('YXQGTFTSDFSKXLDKKAQXAFIEYLLAGGPSSGAPPPSGG (Aib, αMeL; acylated Lys; C-terminal amide; synthetic construct; SITE 2: note = 2-Aminoisobutyric Acid; SITE 13: note = alpha-methyl-leucine; SITE 17: note = Lysine is chemically modified through conjugation of the epsilon-amino group of the Lysine side chain with (2-[2-(2-Amino-ethoxy)-ethoxy]-acetyl)-(gamma-Glu)-CO-(CH2) 18-CO2H; SITE 20: n) [Example 12]', 'Relative cAMP EC50', '12.2 nM'),
  ('Y[Aib]QGT[αMePhe(2-F)]TSDYSILLDKIAAK([AEEA-γGlu-C20 diacid])AFIEYLIEGGPSSGEPPPSEG-NH2 [Example 296]', 'Relative cAMP EC50', '1.72 nM'),
  ('YXQGTXTSDXXIXLDXKAQXEFIEXLIEGGPPSXEPPPSGSE (non-natural residues, acylated Lys (AEEA-γGlu-C18 diacid), C-terminal amide; synthetic construct; SITE 2: note = 2-Aminoisobutyric Acid; SITE 6: note = alpha-methyl-2-fluoro-L-phenylalanine; SITE 10: note = 3-(4-Pyridyl)-L-alanine; SITE 11: note = alpha-methyl-L-serine; SITE 13: note = alpha-methyl-leucine; SITE 16: note = L-ornithine; SITE 17: note = Lysine is chemically mo) [Example 1200]', 'Relative cAMP EC50', '1.5 nM'),
  ('YXQGTFTSDFSKXLDKKAQXAFIEYLLEGGPSSGEPPPGEGX (synthetic construct; SITE 2: note = 2-Aminoisobutyric Acid; SITE 13: note = alpha-methyl-leucine; SITE 17: note = Lysine is chemically modified through conjugation of the epsilon-amino group of the Lysine side chain with (2-[2-(2-Amino-ethoxy)-ethoxy]-acetyl)-(gamma-Glu)-CO-(CH2) 18-CO2H; SITE 20: n) [Example 54]', 'Relative cAMP EC50', '3.77 nM'),
  ('Y[Aib]QGT[αMePhe(2-F)]TSDYSILLDKQAAKAFIEYLIEGGPSSGEPPPSEG-NH2 (not fully specified (residue 20)) [Example 331]', 'Relative cAMP EC50', '1.66 nM');
